- assay.target: CDK12/Cyclin K (Homo sapiens) (UniProt O75909+Q9NYV4)
- Sequence (O75909 whole entry, looked up): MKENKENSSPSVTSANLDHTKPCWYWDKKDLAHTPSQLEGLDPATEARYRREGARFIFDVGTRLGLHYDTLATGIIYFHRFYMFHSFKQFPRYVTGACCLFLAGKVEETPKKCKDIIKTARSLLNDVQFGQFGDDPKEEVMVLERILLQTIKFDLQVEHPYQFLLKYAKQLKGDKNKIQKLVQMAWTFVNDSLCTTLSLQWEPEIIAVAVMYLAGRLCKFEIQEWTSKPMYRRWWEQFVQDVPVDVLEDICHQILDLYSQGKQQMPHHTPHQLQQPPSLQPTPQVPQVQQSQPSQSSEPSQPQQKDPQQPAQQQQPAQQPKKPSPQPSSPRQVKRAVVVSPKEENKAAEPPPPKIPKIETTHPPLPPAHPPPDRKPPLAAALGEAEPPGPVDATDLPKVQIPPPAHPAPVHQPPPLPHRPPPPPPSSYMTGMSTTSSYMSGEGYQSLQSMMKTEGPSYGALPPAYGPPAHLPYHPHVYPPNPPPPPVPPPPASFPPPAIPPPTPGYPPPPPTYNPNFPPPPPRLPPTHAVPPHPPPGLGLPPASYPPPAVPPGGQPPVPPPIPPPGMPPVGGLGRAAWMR
- Sequence (Q9NYV4 whole entry, looked up): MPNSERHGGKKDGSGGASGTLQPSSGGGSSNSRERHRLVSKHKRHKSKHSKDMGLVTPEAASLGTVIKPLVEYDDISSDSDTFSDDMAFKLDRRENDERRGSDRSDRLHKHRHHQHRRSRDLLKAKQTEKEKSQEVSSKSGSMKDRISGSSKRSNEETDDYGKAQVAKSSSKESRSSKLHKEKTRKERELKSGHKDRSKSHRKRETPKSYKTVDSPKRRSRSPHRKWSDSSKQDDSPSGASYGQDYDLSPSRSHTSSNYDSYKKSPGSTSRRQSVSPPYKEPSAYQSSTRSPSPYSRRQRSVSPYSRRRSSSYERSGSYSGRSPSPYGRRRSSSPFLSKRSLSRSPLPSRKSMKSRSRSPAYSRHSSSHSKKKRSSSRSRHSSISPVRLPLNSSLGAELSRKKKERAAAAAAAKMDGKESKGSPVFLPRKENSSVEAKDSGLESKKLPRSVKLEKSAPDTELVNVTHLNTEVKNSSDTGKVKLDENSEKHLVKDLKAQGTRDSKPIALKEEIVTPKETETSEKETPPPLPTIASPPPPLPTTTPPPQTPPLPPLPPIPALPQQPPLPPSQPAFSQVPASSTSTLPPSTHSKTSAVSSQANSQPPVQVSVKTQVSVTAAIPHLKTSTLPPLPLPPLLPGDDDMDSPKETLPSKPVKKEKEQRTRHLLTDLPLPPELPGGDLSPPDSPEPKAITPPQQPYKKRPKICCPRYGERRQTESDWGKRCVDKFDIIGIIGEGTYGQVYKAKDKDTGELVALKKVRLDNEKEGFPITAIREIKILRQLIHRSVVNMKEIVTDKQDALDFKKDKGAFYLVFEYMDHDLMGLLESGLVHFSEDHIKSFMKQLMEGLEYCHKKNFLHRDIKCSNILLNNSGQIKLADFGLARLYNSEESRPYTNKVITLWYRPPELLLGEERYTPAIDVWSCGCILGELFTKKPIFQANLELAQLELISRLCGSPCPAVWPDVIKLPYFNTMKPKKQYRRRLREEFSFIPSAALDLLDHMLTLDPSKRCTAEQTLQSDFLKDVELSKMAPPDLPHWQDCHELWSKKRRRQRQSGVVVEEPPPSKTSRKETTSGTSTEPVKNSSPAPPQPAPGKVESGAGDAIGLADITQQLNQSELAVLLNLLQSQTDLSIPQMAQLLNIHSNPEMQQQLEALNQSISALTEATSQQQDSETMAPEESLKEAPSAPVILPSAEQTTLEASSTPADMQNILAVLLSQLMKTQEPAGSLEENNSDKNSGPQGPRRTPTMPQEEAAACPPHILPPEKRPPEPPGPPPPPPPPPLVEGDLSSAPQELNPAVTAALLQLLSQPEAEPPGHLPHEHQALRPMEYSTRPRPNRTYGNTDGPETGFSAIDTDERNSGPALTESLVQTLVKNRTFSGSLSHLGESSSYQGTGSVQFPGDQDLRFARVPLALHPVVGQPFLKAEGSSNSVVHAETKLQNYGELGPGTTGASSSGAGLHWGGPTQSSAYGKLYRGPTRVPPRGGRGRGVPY
- assay.notes: Inhibition of BODIPY-FL-labeled AT-7519 binding to human His-tagged CDK12/CycK assessed as BODIPY-FL-labeled AT-7519 binding by measuring fluorescence intensity at 1 uM incubated for 120 mins in presence of 3 uM BODIPY-FL-labeled AT-7519 by TR-FRET assay relative to control
- Format: protein-complex assay
measured.parameter: inhibition (%)

compound	assay.target	measure.unit	inhibition
COc1ncc(-c2cnc(N(C(=O)COc3ccccc3)[C@H]3CC[C@H](Nc4ncc(C(F)(F)F)c(N5CC(C)(O)C5)n4)CC3)cn2)cn1	CDK12/Cyclin K (Homo sapiens) (UniProt O75909+Q9NYV4)	%	100
COc1ncc(-c2ccc(N(C(=O)COc3ccccc3)[C@H]3CC[C@H](Nc4ncc(C#N)c(OC5COC5)n4)CC3)nc2)cn1	CDK12/Cyclin K (Homo sapiens) (UniProt O75909+Q9NYV4)	%	98
COc1ncc(-c2cnc(N(C(=O)NCc3ccccc3)[C@H]3CC[C@H](Nc4ncc(C(F)(F)F)c(NC5COC5)n4)CC3)nc2)cn1	CDK12/Cyclin K (Homo sapiens) (UniProt O75909+Q9NYV4)	%	96
Cn1cc(-c2ccc(N(C(=O)NCc3ccccc3)[C@H]3CC[C@H](Nc4ncc(C#N)c(-c5[nH]ncc5O)n4)CC3)nc2)cn1	CDK12/Cyclin K (Homo sapiens) (UniProt O75909+Q9NYV4)	%	96
COc1ncc(-c2cnc(N(C(=O)NCc3ccccc3)[C@H]3CC[C@H](Nc4ncc(C(F)(F)F)c(N5CC(C)(O)C5)n4)CC3)cn2)cn1	CDK12/Cyclin K (Homo sapiens) (UniProt O75909+Q9NYV4)	%	103
COc1ncc(-c2cnc(N(C(=O)NCc3ccccn3)[C@H]3CC[C@H](Nc4ncc(C(F)(F)F)c(OC5COC5)n4)CC3)nc2)cn1	CDK12/Cyclin K (Homo sapiens) (UniProt O75909+Q9NYV4)	%	103
COc1ncc(-c2ccc(N(C(=O)COc3ccccc3)[C@H]3CC[C@H](Nc4ncc(C#N)c(N5CCCC(O)CC5)n4)CC3)nc2)cn1 (stereo partly drawn)	CDK12/Cyclin K (Homo sapiens) (UniProt O75909+Q9NYV4)	%	104
COc1ncc(-c2cnc(N(C(=O)NCc3ccccc3)[C@H]3CC[C@H](Nc4ncc(C#N)c(N5CC(C)(O)C5)n4)CC3)nc2)cn1	CDK12/Cyclin K (Homo sapiens) (UniProt O75909+Q9NYV4)	%	95

----------
- assay.target: CDK12/Cyclin K (Homo sapiens) (UniProt O75909+Q9NYV4)
- assay.notes: Inhibition of BODIPY-FL-labeled AT-7519 binding to human His-tagged CDK12/CycK assessed as BODIPY-FL-labeled AT-7519 binding by measuring fluorescence intensity at 1 uM incubated for 120 mins in presence of 30 uM BODIPY-FL-labeled AT-7519 by TR-FRET assay relative to control
- Type: protein-complex assay
measured.parameter: inhibition (%)

chemical.smiles	assay.target	measure.unit	inhibition
COCCNC(=O)N(c1cnc(-c2cnc(OC)nc2)cn1)[C@H]1CC[C@H](Nc2ncc(C(F)(F)F)c(-c3ccn(C(F)F)n3)n2)CC1	CDK12/Cyclin K (Homo sapiens) (UniProt O75909+Q9NYV4)	%	90
CCCC(=O)N(c1cnc(-c2cnn(C)c2)cn1)[C@H]1CC[C@H](Nc2ncc(C(F)(F)F)c(-c3cncc(S(N)(=O)=O)c3)n2)CC1	CDK12/Cyclin K (Homo sapiens) (UniProt O75909+Q9NYV4)	%	99
COCCOC(=O)N(c1cnc(-c2cnc(OC)nc2)cn1)[C@H]1CC[C@H](Nc2ncc(C(F)(F)F)c(-c3cncc(S(N)(=O)=O)c3)n2)CC1	CDK12/Cyclin K (Homo sapiens) (UniProt O75909+Q9NYV4)	%	91
COCC(=O)N(c1cnc(-c2cnn(C)c2)cn1)[C@H]1CC[C@H](Nc2ncc(C(F)(F)F)c(-c3cncc(S(N)(=O)=O)c3)n2)CC1	CDK12/Cyclin K (Homo sapiens) (UniProt O75909+Q9NYV4)	%	95
COc1ncc(-c2cnc(N(C(=O)OCCN3CCOCC3)[C@H]3CC[C@H](Nc4ncc(C(F)(F)F)c(-c5cncc(S(N)(=O)=O)c5)n4)CC3)cn2)cn1	CDK12/Cyclin K (Homo sapiens) (UniProt O75909+Q9NYV4)	%	99

Entry source: ChEMBL document CHEMBL4806964
